Test: Half life in Kunming mouse at 10 mg/kg, iv measured upto 24 hrs by LC-MS analysis
Assay type: ADME, organism-based
Conditions: in vivo
Parameter Measured: half-life
State the result as a value with its unit after it.

Request: Sample OCCN(CCO)c1nccc(-n2cncn2)n1 — what was its half-life?
Result: 2.79 h

----------
Test system: Staphylococcus aureus
Test: Antibacterial activity against methicillin-resistant Staphylococcus aureus assessed as bacterial growth inhibition incubated for 24 hrs by broth microdilution method
Format: functional
Parameter Measured: MIC

Worked cases, MIC given:
| Record Smiles | MIC |
| --- | --- |
| Clc1ccc2c3ccccc3n(-c3nccc(-n4cncn4)n3)c2c1 | 740 µM |
| CCN(CC)c1nccc(-n2cncn2)n1 | 1170 µM |
| OCCN(CCO)c1ccnc(-n2ccnc2)n1 | 1030 µM |
| Cc1nccn1-c1ccnc(N(CCO)CCO)n1 | 973 µM |
| CO/N=C(/C(=O)N1CCN(c2nccc(-n3cncn3)n2)CC1)c1csc(N)n1 | 294 µM |
| CCc1nccn1-c1nccc(N(CCO)CCO)n1 | 924 µM |

Next up:
Request: Consider the compound shown here: OCCN(CCO)c1nccc(-n2cnc3cc(Br)ccc32)n1 What is its recorded MIC?
Result: 339 µM
